These entries and their values trace back to PubChem BioAssay (NCATS).

experiment: Quantitative High-Throughput drug screen in 47 multiple myeloma cell lines against the NCATS MIPE library collection: Karpas620_DSMZ cell viability assay (AID 1918959); conditions: Karpas620 myeloma viability, CellTiter-Glo ATP luminescence, 48 h; series mostly up to 45.8 µM; further: nearly all actives have a fitted effect of over 30% in size
Results filed as inconclusive are left out. Activity calls are given as the source filed them. The call rests on the fitted dose curve; in most records, active means well fitted cell-killing curve with a large enough effect; inconclusive means small, poorly fitted or top-dose-only effect, or effect the other way; inactive means no such curve, though single readings can be large or run the other way.
Your reply should match one of these outcome classes. T = active, F = inactive

# Molecule, Assigned Category
rows = [
    ("O=C(NC1CC1)c1cccc(-c2ccc3c(NC(=O)C4CC4)n[nH]c3c2)c1", "F"),
]

Called result for `C[C@H]1C[C@H]2[C@@H]3CCC4=CC(=O)C=C[C@]4(C)[C@@H]3C(=O)C[C@]2(C)[C@@]1(O)C(=O)CO`
F
